# System: L1210 leukemia ip in BDF1 mice, survival T/C
# TEST SUMMARY: NCI In Vivo Anticancer Drug Screen. Data for tumor model L1210 Leukemia (intraperitoneal) in B6D2F1 (BDF1) mice
# TEST CONDITIONS: endpoint: mean survival time; dose: 100.0 mg/kg/injection; schedule: Q01DX001 (ip); vehicle: carboxymethylcellulose (CMC); higher = longer survival
Toxic doses and inconclusive results are not listed.
Listed here: items and their measured T/C.

Recorded T/C, per entry:
COc1ccc(NP2(=O)OCC(C)(N)CO2)cc1 (centres undefined): 91 % of control
COc1ccc(Br)cc1/C=C\C=O: 87 % of control
O=C(O)c1ccccc1CC(O)(c1ccccc1)C(O)(Cc1ccccc1C(=O)O)c1ccccc1 (centres undefined): 94 % of control
C=CC(O)CCCCCC (centres undefined): 101 % of control
CC1(C)OC2C(=O)C3COC(O3)C2O1 (centres undefined): 106 % of control

Give L1210 leukemia ip in BDF1 mice, survival T/C T/C for CCN1c2ccccc2Sc2ccccc21
98 % of control

L1210 leukemia ip in BDF1 mice, survival T/C / T/C / O=[N+]([O-])c1ccc(-n2cnnn2)cc1 : value?
94 % of control

What value of T/C on L1210 leukemia ip in BDF1 mice, survival T/C does OC1c2ccccc2C(O)C2C3C=CC(CC3)C12 (centres undefined) have?
98 % of control

* * *

# Test system: L1210 leukemia ip in BDF1 mice, survival T/C
# TEST SUMMARY: NCI In Vivo Anticancer Drug Screen. Data for tumor model L1210 Leukemia (intraperitoneal) in B6D2F1 (BDF1) mice
# TEST CONDITIONS: endpoint: mean survival time; dose: 300.0 mg/kg/injection; schedule: Q01DX001 (ip); vehicle: saline; higher = longer survival
Toxic doses and inconclusive results are not listed.
OBSERVED PROPERTY: T/C

Example results:
O=[N+]([O-])c1cc(CN2CCCCC2)c(O)c2cccnc12: 101 % of control
OC(c1nc2ccccc2[nH]1)C(O)c1nc2ccccc2[nH]1 (configuration not stated): 102 % of control

Form field: reported T/C of CCCCCC[n+]1cccc(C#N)c1
100 % of control

For the compound COC(CN(C)Cc1ccccc1)OC , what T/C is on record?
102 % of control

Which T/C value is on record for COc1ccc2c(c1)C1(C(=O)O)CC=CCC1(C(=O)O)C2 (configuration not stated) ?
96 % of control

Item under review: COc1ccc(-c2c(CO)cc(OC)c(OC)c2OC)c(CO)c1 . Reported T/C?
92 % of control

Give the measured T/C of N#Cc1ccccc1N=NNc1ccc([N+](=O)[O-])cc1 .
98 % of control

Fill in: T/C of CN(C)CCNCc1ccccc1 is ___
95 % of control

Need T/C, item COC(=O)/C=C\n1cnc2ccccc21
107 % of control

Would you mind telling me what T/C value was observed for CC/C=C/C1(C(C)C)C(=O)NC(=O)NC1=O (tested in a mixture with another compound) ?
94 % of control

What value of T/C has been reported for the following compound? COc1ccc(CC[n+]2cccc(C(C)=O)c2)cc1OC
113 % of control

So what does the record say about T/C for Cc1scc[n+]1C ?
107 % of control
